# Organism: Homo sapiens
# ASSAY: Binding affinity to human recombinant MBP-TMLD (42 to 421 residues) fusion protein expressed in Escherichia coli BL21-AI assessed as change in entropy by isothermal titration calorimetry
READOUT: -TdeltaS (kcal/mol)

Study these solved cases before continuing.
C[N+](C)(C)CCCCC[C@H](N)C(=O)O    -4.9
C[N+](C)(C)CCCC[C@H](N)C(=O)O    -1.66
CCC[N+](C)(C)CCCC[C@H](N)C(=O)O    -5.5

(I) CCCC[N+](C)(C)CCCC[C@H](N)C(=O)[O-]
(II) C[N+](C)(C)CCC[C@H](N)C(=O)O
(III) CC[N+](C)(C)CCCC[C@H](N)C(=O)O
(IV) CC(C)[N+](C)(C)CCCC[C@H](N)C(=O)O
Rank the 4 compounds: largest -TdeltaS first, smallest last. Form field (ranking): labels in requested order.
III, IV, II, I
(III: -0.75 kcal/mol, IV: -1.2 kcal/mol, II: -2.5 kcal/mol, I: -5.9 kcal/mol)

----------
# Species: Homo sapiens
# ASSAY: Binding affinity to human recombinant MBP-TMLD (42 to 421 residues) fusion protein expressed in Escherichia coli BL21-AI assessed as change in enthalpy by isothermal titration calorimetry
READOUT: deltaH (kcal/mol)

C[N+](C)(C)CCCCC[C@H](N)C(=O)O    -1.4
C[N+](C)(C)CCC[C@H](N)C(=O)O    -4.5
CC[N+](C)(C)CCCC[C@H](N)C(=O)O    -6.37
C[N+](C)(C)CCCC[C@H](N)C(=O)O    -5.48

(a) CC(C)[N+](C)(C)CCCC[C@H](N)C(=O)O
(b) CCC[N+](C)(C)CCCC[C@H](N)C(=O)O
(c) CCCC[N+](C)(C)CCCC[C@H](N)C(=O)[O-]
Rank the 3 compounds: largest deltaH first, smallest last. Form field (ranking): labels in requested order.
c, b, a

----------
# Organism: Homo sapiens
# ASSAY: Binding affinity to human recombinant MBP-TMLD (42 to 421 residues) fusion protein expressed in Escherichia coli BL21-AI assessed as change in Gibbs free energy by isothermal titration calorimetry
READOUT: deltaG (kcal/mol)

CC[N+](C)(C)CCCC[C@H](N)C(=O)O    -7.12
CCC[N+](C)(C)CCCC[C@H](N)C(=O)O    -6.9
CC(C)[N+](C)(C)CCCC[C@H](N)C(=O)O    -6.75
C[N+](C)(C)CCC[C@H](N)C(=O)O    -6.9
CCCC[N+](C)(C)CCCC[C@H](N)C(=O)[O-]    -6.52
C[N+](C)(C)CCCCC[C@H](N)C(=O)O    -6.28
C[N+](C)(C)CCCC[C@H](N)C(=O)O    -7.15

----------
# Species: Homo sapiens
# ASSAY: Substrate activity at human recombinant MBP-TMLD (42 to 421 residues) fusion protein expressed in Escherichia coli BL21-AI assessed as hydroxylated substrate formation at 500 uM in presence of alpha-ketoglutarate by proton 1D NMR spectroscopy
READOUT: Activity (%)

Study these solved cases before continuing.
CCCC[N+](C)(C)CCCC[C@H](N)C(=O)[O-]    39
CC(C)[N+](C)(C)CCCC[C@H](N)C(=O)O    51
C[N+](C)(C)CCCCC[C@H](N)C(=O)O    30
C[N+](C)(C)CCCC[C@H](N)C(=O)O    97
CC(C)C(=O)N[C@@H](CCCC[N+](C)(C)C)C(=O)[O-]    12
CCC[N+](C)(C)CCCC[C@H](N)C(=O)O    25

(A) CC[N+](C)(C)CCCC[C@H](N)C(=O)O
(B) C[N+](C)(C)CCC[C@H](N)C(=O)O
Which value of Activity is greater, the one for A or the one for B ? // output: label of the selected item
A

----------
# Species: Homo sapiens
# ASSAY: Substrate activity at human recombinant MBP-TMLD (42 to 421 residues) fusion protein expressed in Escherichia coli BL21-AI assessed as ratio of succinate to hydroxylated substrate formation at 500 uM in presence of alpha-ketoglutarate by proton 1D NMR spectroscopy
READOUT: Ratio

C[N+](C)(C)CCCCC[C@H](N)C(=O)O    2.9
CC(C)C(=O)N[C@@H](CCCC[N+](C)(C)C)C(=O)[O-]    3.9
CC(C)[N+](C)(C)CCCC[C@H](N)C(=O)O    2.4
CCCC[N+](C)(C)CCCC[C@H](N)C(=O)[O-]    2.4
CC[N+](C)(C)CCCC[C@H](N)C(=O)O    2.1
CCC[N+](C)(C)CCCC[C@H](N)C(=O)O    3.4

(P) C[N+](C)(C)CCCC[C@H](N)C(=O)O
(Q) C[N+](C)(C)CCC[C@H](N)C(=O)O
// compare: P vs Q , metric Ratio, want the smaller // output: label of the selected item
P
(P: 1.3, Q: 3.1)
